method: small-molecule binders of probe aLefty1, primary screen, biochemical, small-molecule microarray, 635/667 nm fluorescence (AID 1153);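 note: score merges spot fluorescence with signal-to-noise ratio from the scanned slide images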
experimental-setup: higher = more signal
// false strictly below 0.001 in composite z-score; true otherwise

| structure-string | cat |
| --- | --- |
| Cc1ccc(S[C@]2(C(=O)O)CC(=O)N(C(C)C)[C@@H]2c2ccc(CO)cc2I)cc1 | true |
| COc1ccc(CCNC(=O)[C@@H]2c3ccccc3C(=O)N(Cc3ccccc3Cl)[C@H]2c2ccc(CO)cc2)cc1 | false |
| COC(=O)[C@@]1(Cc2ccc(F)cc2)[C@H]2c3cc(C(=O)N(C)C)n(Cc4cc(F)c(F)c(F)c4)c3C[C@H]2CN1C(=O)c1ccccc1 | true |
| O=C1c2ccccc2[C@](Cc2ccccc2I)(C(=O)NCC(F)(F)F)[C@H](c2ccc(CO)cc2)N1Cc1ccccc1Cl | false |
| Cc1ccc(N2C(=O)c3ccccc3[C@@H](C(=O)NC3CC3)[C@@H]2c2ccc(CO)cc2)nc1 | false |
| C=CCNC(=O)[C@@H]1[C@H]2C(=O)O[C@H](c3ccccc3)[C@H](c3ccccc3)N2[C@H](c2ccc(O)cc2)[C@@]12C(=O)N(C(=O)OCCOC)c1ccc(C#CCNC(N)=O)cc12 | true |
| CC(C)OC(=O)C=C1C[C@@H](c2ccccn2)O[C@@H](c2ccccn2)O1 | false |
